- TARGET DESC: T1, ARHGEF11, O15085
- T1 sequence (O15085 42-136, limits assumed, looked up): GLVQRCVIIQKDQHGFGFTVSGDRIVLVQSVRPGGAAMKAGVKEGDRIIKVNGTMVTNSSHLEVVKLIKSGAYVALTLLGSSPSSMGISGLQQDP
- EXPERIMENTAL PROTOCOL: holdup assay
- Design: key: below the threshold = too weak to quantify, mostly under pKd 3.1 to 4
- EXPERIMENTAL CONDITIONS: plain residues with an end cap or a label only (N-terminal biotin on a linker: ado-ado)
OBSERVATION TYPE: pKd

INSERT INTO measurements (binder, reported_measurement) VALUES
  ('PYSESDDDWC [CACNA1A, O00555]', 3.51),
  ('PTPDLPQTRV [KLHDC7A, Q5VTJ3]', 4.16),
  ('PSVGSKKTVL [REELD1, A0A1B0GV85]', 4.2);

Values were extracted from paper PMC9482650.
